B1: ZER1 (parent)
chain: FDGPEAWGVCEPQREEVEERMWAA

Variants of: B1
Assay: protein stability index of a GFP-peptide fusion (GPS, HEK-293T) (PSI 1-6); higher = more stable;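 also: lentivirally expressed fusions sorted by FACS into six bins by GFP to DsRed ratio, PSI derived from sequencing read proportions per bin multiplied by bin number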
Details: c terminus: a fixed tail appended
measure: protein stability index

Below, each entry is followed by its recorded protein stability index result.
A24I 2.13
W7S 4.92
E19S 2.45
M21L 2.71
A23I 2.64

From here, focus on the item given below.
# protein stability index (variant: "A24Q" ) is 2.86
